Experiment summary: Solubility of compound in 20 mM PBS buffer at pH 7.4 in presence of Na2S by UV-Vis spectrophotometric analysis
Type: physicochemical
Property measured: solubility (µM)
Give bare numbers, in µM.

*Q* I have this compound here, O=C(O)c1cn(C2CC2)c2cc(N3CCN(c4ccc([N+](=O)[O-])c5nonc45)CC3)c(F)cc2c1=O , and I need its recorded solubility.
*A* 17
